biological target: Glucose transporter (Leishmania mexicana) (UniProt O61059); assay: ST_JUDE_LEISH: Cytotoxicity at 2uM final concentration against transgenic Leishmania Mexicana promastigotes LmGT2 that are glucose transport deficient and complemented with the L. Mexicana glucose transporter 2. Activity is measured by DNA content using SYBR green in vitro; format: functional
# Lookup of reported inhibition keyed by entry

Worked examples follow.
Item under review: "N#Cc1ccc(-c2ccc(C(=O)Nc3ccc4c(c3)CCN(C3CCC3)CC4)nc2)cc1" . Reported inhibition?
2.04%

Item under review: "NC1CCN(c2nc(NCCCc3ccc(O)cc3)nc(NCc3ccccc3-c3ccccc3)n2)CC1" . Reported inhibition?
1.09%

Item under review: "Cc1cccc2nc(O)c([N+](=O)[O-])c(O)c12" . Reported inhibition?
2.14%

Item under review: "CCOc1c(Br)cc(C)cc1CNCCCNc1nc2ccccc2[nH]1" . Reported inhibition?
1.33%

Item under review: NC1CCCN(Cc2cccc(-c3ccc(-c4nc5cc(F)ccc5[nH]4)cc3)c2)C1 (centres undefined) . Reported inhibition?
3.43%

Item under review: "COc1ccc(-c2ccc(NC(=O)c3ccc(C#N)cc3)cc2)cc1CN1CCCN(C)CC1" . Reported inhibition?
-0.21%

Item under review: "COc1ccc2nccc(N3CCCN(CCNCc4ccc5c(n4)NC(=O)CS5)CC3)c2n1" . Reported inhibition?
3.94%

Item under review: "Cn1cccc1C(=O)C(=O)Nc1ccc(-c2ccc(-c3nc4cc(F)ccc4[nH]3)cc2)cc1" . Reported inhibition?
-0.45%

Next up:
Item under review: "COc1ccc(N2CCN(CCCCNC(=O)c3ccc(NC(=O)c4cc(Cl)cc(Cl)c4)cc3)CC2)c(OC)c1" . Reported inhibition?
3.2%
